The reported measurements were obtained from ChEMBL document CHEMBL3217688.

Form field: IC50 (one value per entry).
target: Nitric oxide synthase 1 (Rattus norvegicus); assay: Inhibition of recombinant rat nNOS assessed as conversion of L-arginine to citrulline after 30 mins
Sequence (P29476 whole entry): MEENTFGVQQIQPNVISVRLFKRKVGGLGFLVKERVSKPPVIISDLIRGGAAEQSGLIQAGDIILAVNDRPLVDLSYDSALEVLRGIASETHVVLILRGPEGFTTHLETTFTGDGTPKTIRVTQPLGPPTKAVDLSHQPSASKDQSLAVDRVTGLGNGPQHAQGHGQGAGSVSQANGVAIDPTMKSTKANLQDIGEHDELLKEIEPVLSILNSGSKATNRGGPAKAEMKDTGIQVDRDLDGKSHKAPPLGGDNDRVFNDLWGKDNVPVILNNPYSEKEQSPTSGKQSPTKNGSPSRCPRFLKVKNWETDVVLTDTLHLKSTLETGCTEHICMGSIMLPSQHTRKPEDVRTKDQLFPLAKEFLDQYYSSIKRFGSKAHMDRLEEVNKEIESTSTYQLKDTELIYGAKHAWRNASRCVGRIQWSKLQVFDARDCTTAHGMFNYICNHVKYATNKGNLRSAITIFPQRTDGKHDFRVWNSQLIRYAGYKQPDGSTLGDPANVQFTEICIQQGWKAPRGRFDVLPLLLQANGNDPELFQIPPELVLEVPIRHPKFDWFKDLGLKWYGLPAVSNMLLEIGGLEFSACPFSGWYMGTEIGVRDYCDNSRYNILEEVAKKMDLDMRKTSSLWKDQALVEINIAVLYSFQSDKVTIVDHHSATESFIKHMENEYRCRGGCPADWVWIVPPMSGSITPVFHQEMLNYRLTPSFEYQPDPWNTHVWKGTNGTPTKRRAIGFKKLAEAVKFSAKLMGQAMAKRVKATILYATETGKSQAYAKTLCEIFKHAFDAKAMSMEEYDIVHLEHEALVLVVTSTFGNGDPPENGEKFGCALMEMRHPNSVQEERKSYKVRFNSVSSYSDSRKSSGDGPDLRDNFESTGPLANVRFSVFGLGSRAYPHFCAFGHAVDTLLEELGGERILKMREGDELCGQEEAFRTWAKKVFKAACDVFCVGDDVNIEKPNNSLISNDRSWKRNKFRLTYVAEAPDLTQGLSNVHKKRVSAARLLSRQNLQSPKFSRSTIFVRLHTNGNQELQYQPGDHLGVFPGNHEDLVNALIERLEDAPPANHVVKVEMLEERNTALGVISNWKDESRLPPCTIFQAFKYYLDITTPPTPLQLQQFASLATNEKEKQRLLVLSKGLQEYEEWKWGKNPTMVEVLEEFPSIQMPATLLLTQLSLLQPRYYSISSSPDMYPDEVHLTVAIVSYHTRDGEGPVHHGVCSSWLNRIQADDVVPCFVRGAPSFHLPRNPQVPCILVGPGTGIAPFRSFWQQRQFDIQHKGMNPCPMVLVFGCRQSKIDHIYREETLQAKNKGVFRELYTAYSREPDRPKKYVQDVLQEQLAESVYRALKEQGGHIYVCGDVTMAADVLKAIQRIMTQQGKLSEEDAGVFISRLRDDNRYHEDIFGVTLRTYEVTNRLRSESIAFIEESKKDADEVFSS
Quick note: give the figure in nM, leave out the unit.

N=C(Nc1cccc(C2(O)CCN(CCc3cccc(Cl)c3Cl)CC2)c1)c1cccs1: 129
N=C(Nc1cccc(C2(O)CCN(CCc3cccc(Cl)c3)CC2)c1)c1cccs1: 131
CCCCNC(=O)N1CCC(O)(c2cccc(NC(=N)c3cccs3)c2)CC1: 694
N=C(Nc1cccc(C2(O)CCN(C(=O)OCc3ccccc3)CC2)c1)c1cccs1: 376

So what's the measured IC50 for this one? "CC(C)S(=O)(=O)N1CCC(O)(c2cccc(NC(=N)c3cccs3)c2)CC1"
551

So what's the measured IC50 for this one? "CCCS(=O)(=O)N1CCC(O)(c2cccc(NC(=N)c3cccs3)c2)CC1"
706

So what's the measured IC50 for this one? "N=C(Nc1cccc(C2(O)CCN(CCc3ccc(Cl)c(Cl)c3)CC2)c1)c1cccs1"
17

###

assay: Selectivity ratio of IC50 for eNOS (unknown origin) to IC50 for recombinant rat nNOS
readout-kind: Ratio IC50
No unit in the answer, only the number.

N=C(Nc1cccc(C2(O)CCN(CCc3cccc(Cl)c3Cl)CC2)c1)c1cccs1: 775

So what's the measured Ratio IC50 for this one? "CC(C)S(=O)(=O)N1CCC(O)(c2cccc(NC(=N)c3cccs3)c2)CC1"
42

So what's the measured Ratio IC50 for this one? "N=C(Nc1cccc(C2(O)CCN(CCc3ccc(Cl)c(Cl)c3)CC2)c1)c1cccs1"
1660

So what's the measured Ratio IC50 for this one? "CCCS(=O)(=O)N1CCC(O)(c2cccc(NC(=N)c3cccs3)c2)CC1"
26

So what's the measured Ratio IC50 for this one? "N=C(Nc1cccc(C2(O)CCN(CCc3cccc(Cl)c3)CC2)c1)c1cccs1"
438

So what's the measured Ratio IC50 for this one? "N=C(Nc1cccc(C2(O)CCN(C(=O)OCc3ccccc3)CC2)c1)c1cccs1"
159

So what's the measured Ratio IC50 for this one? "CCCCNC(=O)N1CCC(O)(c2cccc(NC(=N)c3cccs3)c2)CC1"
14

###

experiment: Drug metabolism in human liver microsomes after 20 mins; assay type: ADME; settings: read-out: Drug metabolism
readout-kind: metabolised at 20 min (%)
Quick note: give the figure in %, leave out the unit.

Example cases with answers are listed next.
N=C(Nc1cccc(C2(O)CCN(CCc3cccc(Cl)c3)CC2)c1)c1cccs1: 39
N=C(Nc1cccc(C2(O)CCN(CCc3cccc(Cl)c3Cl)CC2)c1)c1cccs1: 23
N=C(Nc1cccc(C2(O)CCN(CCc3ccc(Cl)c(Cl)c3)CC2)c1)c1cccs1: 32
CC(C)S(=O)(=O)N1CCC(O)(c2cccc(NC(=N)c3cccs3)c2)CC1: 16
CCCS(=O)(=O)N1CCC(O)(c2cccc(NC(=N)c3cccs3)c2)CC1: 25

So what's the measured metabolised at 20 min for this one? "CCCCNC(=O)N1CCC(O)(c2cccc(NC(=N)c3cccs3)c2)CC1"
54

So what's the measured metabolised at 20 min for this one? "N=C(Nc1cccc(C2(O)CCN(C(=O)OCc3ccccc3)CC2)c1)c1cccs1"
77

###

Form field: IC50 (one value per entry).
molecular target: Nitric oxide synthase 3 (Homo sapiens)
Sequence (P29474 whole entry, looked up): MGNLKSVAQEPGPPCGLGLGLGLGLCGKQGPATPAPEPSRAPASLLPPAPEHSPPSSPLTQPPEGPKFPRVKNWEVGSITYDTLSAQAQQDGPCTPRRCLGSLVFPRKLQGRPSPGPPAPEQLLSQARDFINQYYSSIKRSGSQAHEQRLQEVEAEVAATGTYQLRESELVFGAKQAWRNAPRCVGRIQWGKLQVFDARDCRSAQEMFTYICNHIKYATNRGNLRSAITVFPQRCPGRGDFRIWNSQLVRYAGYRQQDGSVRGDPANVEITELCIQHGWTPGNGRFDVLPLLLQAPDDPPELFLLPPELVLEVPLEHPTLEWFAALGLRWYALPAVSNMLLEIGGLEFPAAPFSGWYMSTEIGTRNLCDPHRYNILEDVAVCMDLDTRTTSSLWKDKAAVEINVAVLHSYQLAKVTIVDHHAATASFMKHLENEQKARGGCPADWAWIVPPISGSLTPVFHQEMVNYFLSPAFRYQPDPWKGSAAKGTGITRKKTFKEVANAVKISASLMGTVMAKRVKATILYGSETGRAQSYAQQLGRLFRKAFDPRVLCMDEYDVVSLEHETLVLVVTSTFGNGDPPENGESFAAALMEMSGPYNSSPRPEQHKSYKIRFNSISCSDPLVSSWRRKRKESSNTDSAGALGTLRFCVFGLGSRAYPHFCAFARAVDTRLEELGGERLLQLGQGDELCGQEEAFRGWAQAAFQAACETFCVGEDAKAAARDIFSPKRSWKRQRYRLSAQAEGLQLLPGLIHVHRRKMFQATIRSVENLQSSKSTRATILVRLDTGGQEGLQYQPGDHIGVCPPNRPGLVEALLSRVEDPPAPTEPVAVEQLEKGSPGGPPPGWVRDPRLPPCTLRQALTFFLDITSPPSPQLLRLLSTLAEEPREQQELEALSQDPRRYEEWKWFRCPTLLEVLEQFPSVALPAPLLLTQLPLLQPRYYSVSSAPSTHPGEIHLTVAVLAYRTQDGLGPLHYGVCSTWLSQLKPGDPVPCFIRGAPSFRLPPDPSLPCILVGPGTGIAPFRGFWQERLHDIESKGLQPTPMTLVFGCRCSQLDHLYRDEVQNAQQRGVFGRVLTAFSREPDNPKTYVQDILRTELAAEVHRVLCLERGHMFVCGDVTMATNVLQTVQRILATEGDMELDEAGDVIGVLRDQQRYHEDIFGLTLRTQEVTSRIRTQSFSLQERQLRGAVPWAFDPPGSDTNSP
Quick note: give the figure in µM, leave out the unit.

N=C(Nc1cccc(C2(O)CCN(CCc3cccc(Cl)c3)CC2)c1)c1cccs1: 57.5
N=C(Nc1cccc(C2(O)CCN(CCc3ccc(Cl)c(Cl)c3)CC2)c1)c1cccs1: 28.3

So what's the measured IC50 for this one? "CCCS(=O)(=O)N1CCC(O)(c2cccc(NC(=N)c3cccs3)c2)CC1"
18.2

So what's the measured IC50 for this one? "CC(C)S(=O)(=O)N1CCC(O)(c2cccc(NC(=N)c3cccs3)c2)CC1"
23

So what's the measured IC50 for this one? "N=C(Nc1cccc(C2(O)CCN(CCc3cccc(Cl)c3Cl)CC2)c1)c1cccs1"
100

So what's the measured IC50 for this one? "N=C(Nc1cccc(C2(O)CCN(C(=O)OCc3ccccc3)CC2)c1)c1cccs1"
60.1
